Origin of measurements: patent US20210380703A1

study.target: human ACVR2A (human, UniProt P27037 20-135, limits assumed); also: test concentration or dose not given here
Sequence (P27037 20-135 limits assumed): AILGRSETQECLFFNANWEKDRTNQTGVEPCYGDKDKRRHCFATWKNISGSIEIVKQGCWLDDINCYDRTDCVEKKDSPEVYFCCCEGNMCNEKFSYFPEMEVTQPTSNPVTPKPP
assay.procedure: ELISA
// optical density lookup, one value per entry
Expressed in OD, but write only the number.

binder: 367_A09 (antibody, V domains shown, VH/VL only) VH: EVQLLESGGGLVQPGGSLRLSCAASGFTFDSYGMNWVRQAPGKGLEWVAGINYNGGYTSYADSVKGRFTISRDNSKNTLYLQMNSLRAEDTAVYYCARSATWHDTHLDYWGQGTLVTVSS VL: DIQMTQSPSSLSASVGDRVTITCRASQSILSYVNWYQQKPGKAPKLVIYAATSRHSGVPSRFSGSGSGTDFTLTISSLQPEDFATYYCQQSYDTPLTFGGGTKVEIK
optical density (OD): 2.18
//
binder: 376_B04 (antibody, V domains shown, VH/VL only) VH: EVQLLESGGGLVQPGGSLRLSCAASGFTFDSYGMHWVRQAPGKGLEWVASINYNGGYTGYADSVKGRFTISRDNSKNTLYLQMNSLRAEDTAVYYCARSANWHDTALDYWGQGTLVTVSS VL: DIQMTQSPSSLSASVGDRVTITCRASQSIVSYVNWYQQKPGKAPKLVIYAATSRASGVPSRFSGSGSGTDFTLTISSLQPEDFATYYCQQSYDTPLTFGGGTKVEIK
optical density (OD): 3.41

// moving on: another record for optical density
Please indicate optical density recorded for 369_B12 (antibody, V domains shown, VH/VL only) VH: EVQLLESGGGLVQPGGSLRLSCAASGFTFDSYSMNWVRQAPGKGLEWVSGINYNGGYKSYADSVKGRFTISRDNSKNTLYLQMNSLRAEDTAVYYCARSATWHDTHLDYWGQGTLVTVSS VL: DIQMTQSPSSLSASVGDRVTITCRASQSILTYVNWYQQKPGKAPKLLIYATTSLASGVPSRFSGSGSGTDFTLTISSLQPEDFATYYCQQSYDSPLTFGGGTKVEIK
2.67
